Kindly supply the reported TGI values for the records listed here.
# System: SF-539 CNS
# Test: NCI tumour cell line growth inhibition, 48 h

Q: Look up and report measured TGI for this entry: O=C1OCC(c2ccc(O)cc2)=C1c1cc(O)c(O)c(O)c1
Result: > 100 µM

Q: Look up and report measured TGI for this entry: Cn1cnc([N+](=O)[O-])c1Sc1nnnn1C
Result: 36.3 µM

Q: Look up and report measured TGI for this entry: C[C@]12C(=O)C=CCC1=CC[C@@H]1[C@@H]2[C@H]2CC3(O)C(=O)O[C@@]4(C)[C@H]5C[C@@]6(C)[C@@H]7[C@@]2(O)[C@]1(OC[C@H]6C(=O)O5)O[C@]734 (some centres not stated)
Result: 42.9 µM

Q: Look up and report measured TGI for this entry: CCN(CCCl)CCCCCNc1c2ccccc2nc2ccc(OC)cc12
Result: 2.65 µM

Q: Look up and report measured TGI for this entry: CCCCC(=C=C(C)CO)C1CCCN1C(=O)OC(C)(C)C (configuration not stated)
Result: 34.5 µM

Q: Look up and report measured TGI for this entry: COc1cc(S(=O)(=O)Nc2ccc(-c3csc(N4C(=O)C(Cl)C4c4cccc(Oc5ccccc5)c4)n3)cc2)ccc1Cl (configuration not stated)
Result: 29.6 µM

Q: Look up and report measured TGI for this entry: c1ccc2cc(Cn3cc[n+](Cc4ccc5ccccc5c4)c3)ccc2c1
Result: 9.27 µM
